Can you tell me inhibition at 50 µg/mL for the items I'm about to list?
# Test system: Thanatephorus cucumeris
# METHOD NOTES: Antifungal activity against Rhizoctonia solani at 50 ug/ml
# Format: functional
Answers are plain numbers, in %.

>>> obs_value("CO/N=C(/C(=O)OC)c1ccccc1CSc1nnc(-c2cccc(Cl)c2Cl)o1")
91.6

Provide the reported inhibition at 50 µg/mL of each entry below, same order.
1. CO/N=C(/C(=O)OC)c1ccccc1CSc1nnc(-c2ccccc2)o1
2. CO/N=C(/C(=O)OC)c1ccccc1CSc1nnc(-c2ccc(OC)cc2)o1
3. CO/N=C(/C(=O)OC)c1ccccc1CSc1nnc(-c2ccccc2I)o1

[92.4, 91.8, 90.2]
